Species: Homo sapiens
Assay: Selectivity index, ratio of IC50 for human COX1 to IC50 for human COX2
Label true when Ratio IC50 >= 2; otherwise false.

>>> label("CC(C(=O)O)c1ccc(Cc2ccsc2)cc1F (stereo unspecified)")
"false"

QUERY: Has CC(C(=O)O)c1ccc(Cc2ccoc2)cc1F (stereo unspecified) a recorded Ratio IC50 greater than or equal to 2?
RESULT: true

QUERY: Has CC(C(=O)O)c1ccc(OC2CCCC2=O)cc1F (stereo unspecified) a recorded Ratio IC50 greater than or equal to 2?
RESULT: false

QUERY: Has CC(C(=O)O)c1ccc(OC2CCCC2)cc1F (stereo unspecified) a recorded Ratio IC50 greater than or equal to 2?
RESULT: false

QUERY: Has CC(C(=O)O)c1ccc(CC2CCCC2=O)cc1 (stereo unspecified) a recorded Ratio IC50 greater than or equal to 2?
RESULT: true

QUERY: Has CC(C(=O)O)c1ccc(NC2CCCC2)cc1F (stereo unspecified) a recorded Ratio IC50 greater than or equal to 2?
RESULT: false

QUERY: Has CC(C(=O)O)c1ccc(CC2CCCC2=O)cc1F (stereo unspecified) a recorded Ratio IC50 greater than or equal to 2?
RESULT: false

QUERY: Has CC(C(=O)O)c1ccc(Cc2ccco2)cc1F (stereo unspecified) a recorded Ratio IC50 greater than or equal to 2?
RESULT: true

###

Target: Prostaglandin G/H synthase 1 (Homo sapiens, UniProt P23219)
Sequence (P23219 whole entry): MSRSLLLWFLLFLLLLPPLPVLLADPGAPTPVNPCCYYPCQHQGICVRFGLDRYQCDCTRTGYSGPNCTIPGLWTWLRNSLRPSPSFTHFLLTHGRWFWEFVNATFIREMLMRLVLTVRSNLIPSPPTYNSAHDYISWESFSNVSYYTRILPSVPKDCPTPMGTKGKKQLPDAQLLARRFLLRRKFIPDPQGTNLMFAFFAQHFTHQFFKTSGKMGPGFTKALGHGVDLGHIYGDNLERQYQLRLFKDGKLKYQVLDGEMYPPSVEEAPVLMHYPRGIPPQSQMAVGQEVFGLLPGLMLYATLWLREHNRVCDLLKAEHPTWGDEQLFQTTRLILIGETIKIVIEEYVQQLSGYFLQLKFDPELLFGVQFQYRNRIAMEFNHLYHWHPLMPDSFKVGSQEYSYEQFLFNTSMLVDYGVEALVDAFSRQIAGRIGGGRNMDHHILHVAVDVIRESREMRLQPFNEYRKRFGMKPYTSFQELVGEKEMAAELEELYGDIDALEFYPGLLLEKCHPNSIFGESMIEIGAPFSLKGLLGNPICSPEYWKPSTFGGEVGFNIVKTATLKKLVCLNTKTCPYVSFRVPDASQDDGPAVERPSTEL
Experiment: Inhibition of human whole blood COX-1 assessed as inhibition of TXB2 production at 10 uM by EIA
Label class 1 when inhibition >= 10%; otherwise class 0.

>>> label("CC(C(=O)O)c1cc(F)c(CC2CCCC2=O)cc1F (stereo unspecified)")
"class 0"
>>> label("CC(C(=O)O)c1c(F)cc(CC2CCCC2=O)cc1Br (stereo unspecified)")
"class 1"

QUERY: Has CC(C(=O)O)c1c(F)cc(CC2CCCC2=O)cc1F (stereo unspecified) a recorded inhibition greater than or equal to 10%?
RESULT: class 1

QUERY: Has CC(C(=O)O)c1ccc(Cc2ccsc2)cc1F (stereo unspecified) a recorded inhibition greater than or equal to 10%?
RESULT: class 1

QUERY: Has CC(C(=O)O)c1ccc(S[C@H]2CCC[C@@H]2O)cc1F (stereo partly specified) a recorded inhibition greater than or equal to 10%?
RESULT: class 0

QUERY: Has CC(C(=O)O)c1ccc(Cc2ccco2)cc1F (stereo unspecified) a recorded inhibition greater than or equal to 10%?
RESULT: class 1

###

Target: Prostaglandin G/H synthase 1 (Homo sapiens, UniProt P23219)
Assay: Inhibition of human whole blood COX-1 assessed as inhibition of TXB2 production at 10 uM by EIA
VALUE KIND: inhibition (%)
Note: unit % is implicit; provide only the numeric part.

Below, 3 compounds whose answers are already recorded.
>>> recorded_result("CC(C(=O)O)c1ccc(O[C@H]2CCC[C@@H]2O)cc1F (some centres undefined)")
10.4
>>> recorded_result("CC(C(=O)O)c1ccc(NC2CCCC2)cc1F (centres undefined)")
34.7
>>> recorded_result("CC(C(=O)O)c1ccc(SC2CCCC2)cc1F (centres undefined)")
4.7

// moving on: another record for inhibition
QUERY: Query: inhibition; subject: CC(C(=O)O)c1c(F)cc(CC2CCCC2=O)cc1-c1ccc(O)cc1 (centres undefined)
RESULT: 0
